Where do these numbers come from? They come from the supplement of paper PMC10065799.

# Test Target: EPHB1 (UniProt P54762)
# Sequence (P54762 whole entry, looked up): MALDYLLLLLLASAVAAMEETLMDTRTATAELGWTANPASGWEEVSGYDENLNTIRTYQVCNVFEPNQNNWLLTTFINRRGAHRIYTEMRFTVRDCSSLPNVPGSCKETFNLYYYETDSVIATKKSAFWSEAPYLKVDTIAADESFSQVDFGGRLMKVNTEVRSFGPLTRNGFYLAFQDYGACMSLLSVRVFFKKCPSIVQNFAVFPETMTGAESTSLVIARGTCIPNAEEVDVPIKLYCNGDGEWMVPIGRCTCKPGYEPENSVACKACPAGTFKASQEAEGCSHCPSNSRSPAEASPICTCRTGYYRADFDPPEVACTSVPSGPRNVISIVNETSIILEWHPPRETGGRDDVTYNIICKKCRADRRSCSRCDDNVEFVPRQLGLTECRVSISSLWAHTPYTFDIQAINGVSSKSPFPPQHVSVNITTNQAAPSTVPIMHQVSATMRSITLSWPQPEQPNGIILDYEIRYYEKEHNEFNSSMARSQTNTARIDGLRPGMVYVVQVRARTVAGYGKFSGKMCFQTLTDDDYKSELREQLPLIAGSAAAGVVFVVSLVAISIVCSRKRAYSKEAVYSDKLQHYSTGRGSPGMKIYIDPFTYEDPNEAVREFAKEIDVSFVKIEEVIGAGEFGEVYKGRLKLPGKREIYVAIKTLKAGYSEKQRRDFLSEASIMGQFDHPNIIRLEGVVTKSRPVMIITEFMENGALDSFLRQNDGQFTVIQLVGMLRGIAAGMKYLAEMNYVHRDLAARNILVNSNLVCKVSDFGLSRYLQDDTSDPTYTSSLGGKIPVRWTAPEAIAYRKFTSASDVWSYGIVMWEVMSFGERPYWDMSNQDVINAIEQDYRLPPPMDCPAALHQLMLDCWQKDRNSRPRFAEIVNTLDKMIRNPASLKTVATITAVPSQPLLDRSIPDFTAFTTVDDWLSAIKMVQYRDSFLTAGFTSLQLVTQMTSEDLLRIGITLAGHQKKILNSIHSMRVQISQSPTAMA
# Protocol Text: phosphorylation enrichment, bacterial display (enrichment ratio); higher = better substrate or ligand; peptides without Tyr show the background
Documented phosphorylation enrichment across a set of sequences

VHFARYLAMNK [HARS1_Y138_P134H] : 0.504
ARKCKYFKKHE [NFIX_Y40_R38C] : 0.452
IDSTPYRQWFE [RPS8_Y109_YF] : 0.487

input: Requested read-out: phosphorylation enrichment. Entry: AKKVFYVIETR [SHH_Y253]
output: 0.569

input: Returns the measured phosphorylation enrichment for the input sequence. Input: REEKNYKLKET [BCLAF1_Y459]
output: 0.691

input: Would you mind telling me what phosphorylation enrichment value was observed for SVTGTYSPALN [TP53_Y126_C124G] ?
output: 0.419

input: Need phosphorylation enrichment of IQTDGDRAPEA [UHMK1_Y197_Y197D] , thanks.
output: 0.636

input: What does the data say about its phosphorylation enrichment? Entry: PTTKTYLPHFD [HBA1_Y43_F44L]
output: 0.362

input: State the recorded phosphorylation enrichment for this entry: TFWKKYCTFWK [CCDC70_Y125_R126C]
output: 0.381

input: Find the recorded phosphorylation enrichment belonging to RCFVFYFSFLL [PTEN_Y177_R173C_YF] and report it.
output: 0.353

input: Return reported phosphorylation enrichment; argument: HNELYYEAAEH [VANGL1_Y345_E347A]
output: 1.12

input: Param item = YSMGCYEISLG [HMGCL_Y198] ; retrieve measured phosphorylation enrichment.
output: 1.56

input: Which phosphorylation enrichment reading was recorded for the sequence DAAEDYAEGVR [DHODH_Y194] ?
output: 0.549

input: Fill blank: measured phosphorylation enrichment of the sequence KLKRSYSSPDI [USP8_Y717] is ____.
output: 0.376

input: Requested read-out: phosphorylation enrichment. Entry: LLFRVYGLESL [INSR_Y94]
output: 0.96

input: Field request: phosphorylation enrichment | item: FSSLGYPLPEG [ZSWIM4_Y87_P89L_YF]
output: 0.372

input: Query (sequence): TFHNTYHSQMR [IL1RAPL1_Y615] ; field requested: phosphorylation enrichment
output: 0.33

input: What value of phosphorylation enrichment has been reported for the following sequence? IRSGIYYKPES [L2HGDH_Y102_H98R]
output: 0.982

input: Given YSNVLYRPRGP [TMIGD2_Y197_A202P] , state its recorded phosphorylation enrichment.
output: 0.492

input: Entry under review: RLVTRYIFNRE [HLA-DQB1_Y62_Y58L_YF] . Reported phosphorylation enrichment?
output: 0.477

input: Could you tell me which phosphorylation enrichment is on file for PSPTRYSLSPS [RANBP2_Y785] ?
output: 0.536

input: For the sequence KPNMNYDKLSQ [FLI1_Y332_R337Q] , what phosphorylation enrichment is on record?
output: 0.418

input: Given the entry GGGGSYNVFGN [HNRNPA1_Y312_D314V] , report its measured phosphorylation enrichment.
output: 0.404

input: I am curious: what phosphorylation enrichment value has been reported for KPNMNYDKLSR [FLI1_Y332] ?
output: 0.494

###

Catalogue of SH2 binding enrichment readings, one per entry.
# Test Target: c-Src SH2;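 further: peptide library displayed on the E. coli surface as eCPX fusions, selected cells deep-sequenced, score is each peptide's frequency after selection divided by its frequency in the input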
# Protocol Text: SH2 binding enrichment of the phosphorylated peptide, bacterial display (enrichment ratio); higher = better substrate or ligand; peptides without Tyr show the background
Hey, just send me the number, nothing else.

MKTISYETLIA [DOCK10_Y1350] : 1.97
SMEGLYSSAQD [CLIC5_Y111_T114A] : 0.733
GSTLSYFGLAT [P2RX7_Y343_A348T] : 0.595
DSDTDYGSGYP [RNASEH2A_Y206_L202S] : 0.442

input: Given the entry ADLAKYICENQ [ALB_Y287] , report its measured SH2 binding enrichment.
output: 0.607

input: Tell me the measured SH2 binding enrichment of KEDSAYGSQSV [NFKB2_Y868] , please.
output: 0.558

input: I have this sequence here, AGADGYDYLAP [FOXL2_Y186_G187D] , and I need its recorded SH2 binding enrichment.
output: 4.34
